- STUDY_TARGET: hDP (Homo sapiens, UniProt Q13258)
- Sequence (Q13258 whole entry): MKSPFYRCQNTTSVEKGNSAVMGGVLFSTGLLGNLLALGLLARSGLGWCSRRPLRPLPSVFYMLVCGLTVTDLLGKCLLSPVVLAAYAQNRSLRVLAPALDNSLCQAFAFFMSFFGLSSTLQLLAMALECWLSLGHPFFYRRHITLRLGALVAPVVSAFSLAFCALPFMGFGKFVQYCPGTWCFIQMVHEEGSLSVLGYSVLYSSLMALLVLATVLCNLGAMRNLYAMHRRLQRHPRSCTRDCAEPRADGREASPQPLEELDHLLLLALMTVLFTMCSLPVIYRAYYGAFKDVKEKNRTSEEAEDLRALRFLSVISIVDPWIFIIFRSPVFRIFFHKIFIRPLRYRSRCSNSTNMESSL
- PROTOCOL_SUMMARY: Other receptors, hDP
- Type: cell-based
ENDPOINT: EC50 (nM)
The answer is to be given in nM; state only the numeric part.

// `CCCCCCc1ccc(N2C(=O)CC[C@@H]2CCCc2ccc(C(=O)O)s2)cc1` : EC50 value = 389

* * *

- STUDY_TARGET: hEP3A (Homo sapiens)
- Sequence (P43115 whole entry): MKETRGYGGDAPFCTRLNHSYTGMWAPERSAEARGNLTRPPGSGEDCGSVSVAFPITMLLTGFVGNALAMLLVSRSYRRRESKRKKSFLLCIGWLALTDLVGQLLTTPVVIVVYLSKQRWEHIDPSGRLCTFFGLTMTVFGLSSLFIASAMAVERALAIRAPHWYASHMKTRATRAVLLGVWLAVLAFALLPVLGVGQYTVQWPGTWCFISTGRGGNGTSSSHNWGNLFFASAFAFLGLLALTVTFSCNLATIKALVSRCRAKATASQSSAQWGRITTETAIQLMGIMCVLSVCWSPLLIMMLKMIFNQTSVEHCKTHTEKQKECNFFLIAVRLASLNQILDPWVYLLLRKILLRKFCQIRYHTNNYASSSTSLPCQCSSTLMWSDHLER
- PROTOCOL_SUMMARY: Other receptors, hEP3A
- Type: cell-based
ENDPOINT: EC50
Report field: quantity (unit follows the number).

// `CCCCCCc1ccc(N2C(=O)CC[C@@H]2CCCc2ccc(C(=O)O)s2)cc1` : EC50 value = 1550 nM
